# TARGET: Alpha-1A adrenergic receptor (Rattus norvegicus, UniProt P43140)
# Sequence (P43140 whole entry): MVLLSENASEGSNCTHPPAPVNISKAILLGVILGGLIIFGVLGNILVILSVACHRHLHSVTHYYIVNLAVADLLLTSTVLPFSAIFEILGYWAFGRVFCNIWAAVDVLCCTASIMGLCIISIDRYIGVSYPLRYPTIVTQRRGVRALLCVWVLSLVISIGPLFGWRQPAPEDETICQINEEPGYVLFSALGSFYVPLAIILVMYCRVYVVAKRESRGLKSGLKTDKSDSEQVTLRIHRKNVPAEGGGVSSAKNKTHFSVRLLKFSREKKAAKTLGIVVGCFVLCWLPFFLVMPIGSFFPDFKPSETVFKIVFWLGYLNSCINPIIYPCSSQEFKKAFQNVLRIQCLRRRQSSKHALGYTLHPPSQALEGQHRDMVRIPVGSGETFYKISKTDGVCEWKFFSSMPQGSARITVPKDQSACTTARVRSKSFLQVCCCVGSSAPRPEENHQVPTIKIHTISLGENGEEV
# TEST_DESCRIPTION: DRUGMATRIX: Alpha-1A adrenergic receptor radioligand binding (ligand: prazosin)
# Type: cell membranes, Wistar, Submaxillary gland, Membrane
# CONDITIONS: Not Active = under 50% inhibition at 10 µM

| MOLECULE | IC50 |
| --- | --- |
| COc1ccccc1OCC(O)COC(N)=O (centres undefined) [METHOCARBAMOL] | Not Active |
| CCCCC1C(=O)N(c2ccccc2)N(c2ccccc2)C1=O [PHENYLBUTAZONE] | Not Active |
| NC[C@H]1O[C@H](O[C@H]2[C@H](O)[C@@H](O[C@H]3O[C@H](CO)[C@@H](O)[C@H](N)[C@H]3O)[C@H](N)C[C@@H]2N)[C@H](N)C[C@@H]1O [TOBRAMYCIN] | Not Active |
| C[C@]12CCC(=O)C=C1CC[C@@H]1[C@@H]2[C@@H](O)C[C@@]2(C)[C@H]1CC[C@]2(O)C(=O)CO [HYDROCORTISONE] | Not Active |
